Test: qHTS for Inhibitors of human tyrosyl-DNA phosphodiesterase 1 (TDP1): qHTS in cells in presence of CPT; also: nearly all actives have a fitted effect of over 55% in size
Details: chicken DT40 Tdp1-/-;hTDP1 cells + 20 nM CPT, ATP luminescence, 48 h; series mostly up to 46.2 µM
Out of some 420,000 compounds screened, about 50,000 (12%) were called active. Inconclusive results (about 26%) are left out. Calls follow the shape of the dose curve; as a rule, active = well fitted inhibition curve with a large enough effect; inconclusive = small, poorly fitted or top-dose-only effect; inactive = flat fitted curve, though single readings scatter. The entries come from a sample that favours actives as a whole.
Hi! Could you answer with just one of these? active, inactive

Recorded test outcome, item O[C@@H]1C[C@H](c2ccccc2)N(Cc2cccs2)C[C@H]1n1cc(C2CC2)nn1
inactive

Query: recorded result category for Cc1ccnc(NC(=O)c2ccco2)n1 in this test
inactive

GET /call?item= O=C1c2ccccc2C(=O)c2c1cccc2N1CCN(CCO)CC1 returns the recorded outcome of this test.
inactive

Hi, do you know how CCn1c(SCC(=O)NC2CCCC2)nnc1-c1ccoc1C came out in this test?
inactive

For CC1CCCCC1NC(=O)COc1ccc(C#N)cc1 (stereo unspecified) , what call appears in the results of this test?
inactive

Per the records of this test, what outcome belongs to COCc1cc(=O)oc2cc(NS(=O)(=O)c3ccc(C)cc3)ccc12 ?
inactive

Recorded test outcome, item Cc1cccc(N2CCN(C3=C(c4ccccc4)C(=O)c4ccccc43)CC2)c1C
active

Returns: the outcome recorded for O=c1[nH]nc(SCCS(=O)(=O)c2ccc(F)cc2)n1-c1ccccc1C(F)(F)F in this assay.
active

Short answer needed: outcome of this test for N#Cc1ccc(OCC(=O)Nc2nc(-c3ccccn3)cs2)cc1 ?
active

Could you kindly confirm the outcome this assay logged for OC(CN=c1sc2ccccc2n1CC(O)COc1ccccc1)COc1ccccc1 (stereo unspecified) ?
active

So what was the verdict on N#CC1=C(N)Oc2[nH]c(=S)[nH]c(=O)c2C12C(=O)Nc1ccccc12 (stereo unspecified) in this test?
inactive

Given O=C(CSc1n[nH]c(=O)n1-c1ccccc1)Nc1ccccc1C(F)(F)F , state the outcome it received in this test.
inactive

Could you please tell me the result logged for COCCn1c(CCC(=O)Nc2cc(C)ccc2C)nc2cccnc21 in this assay?
inactive

Test call, this compound: COc1ccc(/C(C)=N/N2CCOCC2)c(O)c1
inactive

Answer briefly: the call reported for CC(=O)N[C@H]1[C@H]([C@H](O)[C@H](O)CO)OC(C(=O)O)=C[C@@H]1O in this assay.
inactive

What did this assay record as the result for C[C@H](CO)N1C[C@H](C)[C@@H](CN(C)C(=O)NC2CCCCC2)Oc2ccc(NC(=O)c3ccncc3)cc2C1=O ?
inactive

---

Assay: qHTS for Inhibitors of human tyrosyl-DNA phosphodiesterase 1 (TDP1): qHTS in cells in presence of CPT; also: nearly all actives have a fitted effect of over 55% in size; also: potency is read from the fitted curve at half-maximal effect
Conditions: chicken DT40 Tdp1-/-;hTDP1 cells + 20 nM CPT, ATP luminescence, 48 h; series mostly up to 46.2 µM
In all, about 420,000 compounds went through this assay and about 50,000 (12%) were called active. About 26% were inconclusive and are not listed. The sample as a whole holds a higher share of actives than the screen did.
READOUT NAME: Potency

// solved cases for Potency follow
- MOLECULE: "Clc1cccc[n+]1CCCC[n+]1ccccc1Cl"
  READOUT NAME: "Potency"
  READOUT VALUE: "inactive"
- MOLECULE: "Brc1cccc[n+]1Cc1cccc(C[n+]2ccccc2Br)c1"
  READOUT NAME: "Potency"
  READOUT VALUE: "12.6 µM (active)"
- MOLECULE: "CCOC(=O)c1cnc(SCC(=O)Nc2ccccc2C(=O)OC)nc1N"
  READOUT NAME: "Potency"
  READOUT VALUE: "16.4 µM (active)"
- MOLECULE: "O=C(NCCS(=O)(=O)NCc1ccc(F)cc1)c1ccccc1"
  READOUT NAME: "Potency"
  READOUT VALUE: "inactive"
- MOLECULE: "O=C(CN1CCN(S(=O)(=O)c2cc(Cl)ccc2Cl)CC1)c1ccc(O)c(O)c1"
  READOUT NAME: "Potency"
  READOUT VALUE: "9.2 µM (active)"

For the molecule shown here, Cn1c(C(=O)Nc2cccc(C(F)(F)F)c2)cc2c(=O)n3ccccc3nc21 , give the reported Potency.
14.6 µM (active)

What value of Potency has been recorded for this entry: COc1ccc(S(=O)(=O)NCc2ccc(C(=O)N(C)Cc3ccco3)cc2)cc1
inactive

Find the recorded Potency belonging to CC(C)[C@@H](NC(=O)OC(C)(C)C)C(=O)NCC1CCC(C(=O)N[C@@H](Cc2ccccc2)C(=O)O)CC1 (stereo partly drawn) and report it.
inactive

Where do the numbers come from? From PubChem BioAssay AID686979.
